Source listed as patent US20260125382A1.

Target: CDK2 (Homo sapiens)
Construct: endogenous in cells; host or cells: MDA-MB-231
Experiment: CDK protein degradation activity (Western blotting), CDK2
Type: cell-based
Conditions: MDA-MB-231 cells, 0.1 μM, 16 hours, Western blot
propertyName: Enzyme degradation CDK2 (% remaining) @ 0.1 μM (%)

[A] Cc1cccc(C(=O)NC2CC(n3cnc4c(Nc5ccc(N6CCN(C(=O)COc7cccc8c7C(=O)N([C@H]7CCC(=O)NC7=O)C8=O)CC6)cc5)ncnc43)C2)n1 (stereo partly drawn) [Compound 85]
[B] O=C1CC[C@H](N2C(=O)c3ccc(N4CCC(C(=O)N5CCC(N6CCN(c7ccc(Nc8ncnc9c8ncn9[C@H]8C[C@@H](NC(=O)Cc9ccccc9)C8)cc7)CC6)CC5)CC4)cc3C2=O)C(=O)N1 [Compound 343]
Please indicate which has the smaller reported Enzyme degradation CDK2 (% remaining) @ 0.1 μM: A , or B . # respond with the chosen item's label
B

----------
Biological target: CDK9 (Homo sapiens)
Construct: endogenous in cells; host or cells: MDA-MB-231
Sequence (P50750 whole entry): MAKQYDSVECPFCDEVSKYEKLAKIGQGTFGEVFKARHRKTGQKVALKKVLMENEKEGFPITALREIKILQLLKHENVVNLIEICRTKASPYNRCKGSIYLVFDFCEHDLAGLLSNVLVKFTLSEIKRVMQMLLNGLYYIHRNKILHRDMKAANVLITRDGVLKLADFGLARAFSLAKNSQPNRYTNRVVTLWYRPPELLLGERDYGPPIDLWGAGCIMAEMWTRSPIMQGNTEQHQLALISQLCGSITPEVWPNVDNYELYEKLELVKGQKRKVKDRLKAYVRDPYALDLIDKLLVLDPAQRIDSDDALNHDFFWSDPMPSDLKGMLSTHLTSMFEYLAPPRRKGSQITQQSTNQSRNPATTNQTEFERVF
Assay: CDK protein degradation activity (Western blotting), CDK9
Format: cell-based
Settings: MDA-MB-231 cells, 10 μM, 16 hours, Western blot
propertyName: Enzyme degradation CDK9 (% remaining) @ 10 μM (%)

[1] O=C1CCC(N2C(=O)c3ccc(N4CCC(C(=O)N5CCN(CC6CCN(c7ccc(Nc8ncnc9c8ncn9[C@H]8C[C@@H](NC(=O)c9c(Cl)cccc9Cl)C8)cc7)CC6)CC5)CC4)cc3C2=O)C(=O)N1 (some centres unmarked)
[2] O=C1CC[C@H](N2C(=O)c3cccc(CCCCN4CCC(CN5CCN(c6ccc(Nc7ncnc8c7ncn8[C@H]7C[C@@H](NC(=O)c8cccc(C(F)(F)F)n8)C7)cc6)CC5)CC4)c3C2=O)C(=O)N1
Please indicate which has the smaller reported Enzyme degradation CDK9 (% remaining) @ 10 μM: 1 , or 2 . # respond with the chosen item's label
1
(1: 0%, 2: 20%)

----------
Biological target: CDK9 (Homo sapiens)
Construct: endogenous in cells; host or cells: MDA-MB-231
Test: CDK protein degradation activity (Western blotting), CDK9
Format: cell-based
Details: MDA-MB-231 cells, 0.1 μM, 16 hours, Western blot
propertyName: Enzyme degradation CDK9 (% remaining) @ 0.1 μM (%)

{"molecule": "O=C1CCC(N2C(=O)c3cccc(N4CCC(CN5CCC(CNc6ncnc7c6ncn7[C@H]6C[C@@H](NC(=O)Cc7ccccc7)C6)CC5)CC4)c3C2=O)C(=O)N1 (some centres unmarked)", "unitString": "%", "dataValue": 20}

[a] O=C1CC[C@H](N2C(=O)c3ccc(N4CCC(CN5CCC(CCNc6ncnc7c6ncn7C6CC(NC(=O)Cc7ccccc7)C6)CC5)CC4)cc3C2=O)C(=O)N1 (some centres unmarked)
[b] O=C1CC[C@H](N2C(=O)c3ccc(N4CCC(C(=O)N5CCC(N6CCN(c7ccc(Nc8ncnc9c8ncn9[C@H]8C[C@@H](NC(=O)Cc9ccccc9)C8)cc7)CC6)CC5)CC4)cc3C2=O)C(=O)N1
[c] O=C1CC[C@@H](c2cccc(OCC(=O)N3CCC(CN4CCN(c5ccc(Nc6ncnc7c6ncn7C6CC(NC(=O)Cc7ccccc7)C6)cc5)CC4)CC3)c2)C(=O)N1 (some centres unmarked)
Order the 3 molecules from highest to lowest Enzyme degradation CDK9 (% remaining) @ 0.1 μM. Answer by writing out the labels in the requested order.
c, a, b
(c: 30%, a: 20%, b: 10%)

----------
Target: CDK9 (Homo sapiens)
Construct: endogenous in cells; host or cells: MDA-MB-231
Assay: CDK protein degradation activity (Western blotting), CDK9
Format: cell-based
Settings: MDA-MB-231 cells, 10 μM, 16 hours, Western blot
propertyName: Enzyme degradation CDK9 (% remaining) @ 10 μM (%)

{"compound": "O=C1CC[C@H](N2C(=O)c3cccc(NCC(=O)N4CCC5(CC(N6CCN(c7ccc(Nc8ncnc9c8ncn9C8CC(NC(=O)Cc9ccccc9)C8)cc7)CC6)C5)C4)c3C2=O)C(=O)N1 (some centres unmarked)", "unitString": "%", "dataValue": 0}

[a] O=C1CC[C@H](N2C(=O)c3ccc(N4CC(C(=O)N5CCN(C6CCN(c7ccc(Nc8ncnc9c8ncn9C8CC(NC(=O)Cc9ccccc9)C8)cc7)CC6)CC5)C4)cc3C2=O)C(=O)N1 (some centres unmarked)
[b] O=C1CC[C@@H](c2cccc(OCC(=O)N3CC(CN4CCC5(CC4)CC(N4CCN(c6ccc(Nc7ncnc8c7ncn8[C@H]7C[C@@H](NC(=O)Cc8ccccc8)C7)cc6)CC4)C5)C3)c2)C(=O)N1
Please indicate which has the smaller reported Enzyme degradation CDK9 (% remaining) @ 10 μM: a , or b . # respond with the chosen item's label
b
(b: 0%, a: 10%)

----------
Molecular target: CDK9 (Homo sapiens)
Construct: endogenous in cells; host or cells: MDA-MB-231
Test: CDK protein degradation activity (Western blotting), CDK9
Format: cell-based
Settings: MDA-MB-231 cells, 0.1 μM, 16 hours, Western blot
propertyName: Enzyme degradation CDK9 (% remaining) @ 0.1 μM

Worked cases, Enzyme degradation CDK9 (% remaining) @ 0.1 μM given:
{"molecule": "O=C1CC[C@H](N2C(=O)c3cc(F)c(N4CCN(CCCC5CCN(c6ccc(Nc7ncnc8c7ncn8[C@H]7C[C@@H](NC(=O)Cc8ccccc8)C7)cc6)CC5)CC4)cc3C2=O)C(=O)N1", "dataValue": "80%"}
{"molecule": "O=C1CC[C@H](N2C(=O)c3cccc(NCC(=O)N4CCC(CC(=O)N5CCN(c6ccc(Nc7ncnc8c7ncn8C7CC(NC(=O)Cc8ccccc8)C7)cc6)CC5)CC4)c3C2=O)C(=O)N1 (stereo partly drawn)", "dataValue": "30/30/30%"}

Lab note: molecule O=C1CC[C@H](N2C(=O)c3ccc(N4CCC(C(=O)N5CCC(CN6CCN(c7ccc(Nc8ncnc9c8ncn9C8CC(NC(=O)c9cccc(F)n9)C8)cc7)CC6)CC5)CC4)cc3C2=O)C(=O)N1 (stereo partly drawn) tested on CDK9 (Homo sapiens); recorded Enzyme degradation CDK9 (% remaining) @ 0.1 μM was 0/0/0%

----------
Biological target: CDK2 (Homo sapiens, UniProt P24941)
Construct: endogenous in cells; host or cells: MDA-MB-231
Assay: CDK protein degradation activity (Western blotting), CDK2
Format: cell-based
Details: MDA-MB-231 cells, 1 μM, 16 hours, Western blot
propertyName: Enzyme degradation CDK2 (% remaining) @ 1 μM (%)

Worked cases, Enzyme degradation CDK2 (% remaining) @ 1 μM given:
{"compound": "Cc1cccc(C(=O)NC2CC(n3cnc4c(NCCCN5CCN(CC6CCN(C(=O)COc7ccc8c(c7)C(=O)N([C@@H]7CCC(=O)NC7=O)C8=O)CC6)CC5)ncnc43)C2)n1 (stereo partly shown)", "testedOn": "CDK2 (Homo sapiens, UniProt P24941)", "unitString": "%", "dataValue": 70}
{"compound": "O=C1CC[C@H](N2C(=O)c3cc(F)c(N4CCC(C(=O)N5CCC6(CC5)CC(N5CCN(c7ccc(Nc8ncnc9c8ncn9C8CC(NC(=O)c9c(Cl)cccc9Cl)C8)cc7)CC5)C6)CC4)cc3C2=O)C(=O)N1 (stereo partly shown)", "testedOn": "CDK2 (Homo sapiens, UniProt P24941)", "unitString": "%", "dataValue": 30}
{"compound": "O=C1CC[C@H](N2C(=O)c3cccc(NCC(=O)N4CCN(CC5CCN(c6ccc(Nc7ncnc8c7ncn8[C@H]7C[C@@H](NC(=O)Cc8ccccc8)C7)cc6)CC5)CC4)c3C2=O)C(=O)N1", "testedOn": "CDK2 (Homo sapiens, UniProt P24941)", "unitString": "%", "dataValue": 10}
{"compound": "Cc1cccc(C(=O)N[C@H]2C[C@H](n3cnc4c(NCC5CCN(CC6CCN(C(=O)CNc7cccc8c7C(=O)N(C7CCC(=O)NC7=O)C8=O)CC6)CC5)ncnc43)C2)n1 (stereo partly shown)", "testedOn": "CDK2 (Homo sapiens, UniProt P24941)", "unitString": "%", "dataValue": 10}
{"compound": "Cc1cccc(C(=O)NC2CC(n3cnc4c(NCCCN5CCN(CC6CCN(C(=O)COc7cccc8c7C(=O)N([C@@H]7CCC(=O)NC7=O)C8=O)CC6)CC5)ncnc43)C2)n1 (stereo partly shown)", "testedOn": "CDK2 (Homo sapiens, UniProt P24941)", "unitString": "%", "dataValue": 70}

[1] O=C1CC[C@H](N2C(=O)c3ccc(N4CC(C(=O)N5CCC(CN6CCC(CCNc7ncnc8c7ncn8C7CC(NC(=O)c8c(Cl)cccc8Cl)C7)CC6)CC5)C4)cc3C2=O)C(=O)N1 (stereo partly shown)
[2] COc1ccc(C(=O)N2CCC(CC(=O)N3CCN(c4ccc(Nc5ncnc6c5ncn6[C@H]5C[C@@H](NC(=O)Cc6ccccc6)C5)cc4)CC3)CC2)cc1N1CCC(=O)NC1=O
Please indicate which has the smaller reported Enzyme degradation CDK2 (% remaining) @ 1 μM: 1 , or 2 . # respond with the chosen item's label
2

[1] O=C1CCC(N2C(=O)c3cccc(CCCCN4CCC(CN5CCN(c6ccc(Nc7ncnc8c7ncn8[C@H]7C[C@@H](NC(=O)c8cccc(F)n8)C7)cc6)CC5)CC4)c3C2=O)C(=O)N1 (stereo partly shown)
[2] O=C1CC[C@H](N2C(=O)c3ccc(OCC(=O)N4CCN(CC5CCN(c6ccc(Nc7ncnc8c7ncn8C7CC(NC(=O)c8c(Cl)cccc8Cl)C7)cc6)CC5)CC4)cc3C2=O)C(=O)N1 (stereo partly shown)
[3] O=C1CC[C@@H](c2cccc(OCC(=O)N3CCC4(CC3)CC(N3CCC(c5ccc(Nc6ncnc7c6ncn7C6CC(NC(=O)Cc7ccccc7)C6)cc5)CC3)C4)c2)C(=O)N1 (stereo partly shown)
Order the 3 compounds from highest to lowest Enzyme degradation CDK2 (% remaining) @ 1 μM. Answer by writing out the labels in the requested order.
2, 1, 3
